# STUDY SYSTEM: SHP2 full-length protein (Homo sapiens, UniProt Q06124)
# Construct: purchased BPS Bioscience #79330
# Sequence (Q06124 1-593): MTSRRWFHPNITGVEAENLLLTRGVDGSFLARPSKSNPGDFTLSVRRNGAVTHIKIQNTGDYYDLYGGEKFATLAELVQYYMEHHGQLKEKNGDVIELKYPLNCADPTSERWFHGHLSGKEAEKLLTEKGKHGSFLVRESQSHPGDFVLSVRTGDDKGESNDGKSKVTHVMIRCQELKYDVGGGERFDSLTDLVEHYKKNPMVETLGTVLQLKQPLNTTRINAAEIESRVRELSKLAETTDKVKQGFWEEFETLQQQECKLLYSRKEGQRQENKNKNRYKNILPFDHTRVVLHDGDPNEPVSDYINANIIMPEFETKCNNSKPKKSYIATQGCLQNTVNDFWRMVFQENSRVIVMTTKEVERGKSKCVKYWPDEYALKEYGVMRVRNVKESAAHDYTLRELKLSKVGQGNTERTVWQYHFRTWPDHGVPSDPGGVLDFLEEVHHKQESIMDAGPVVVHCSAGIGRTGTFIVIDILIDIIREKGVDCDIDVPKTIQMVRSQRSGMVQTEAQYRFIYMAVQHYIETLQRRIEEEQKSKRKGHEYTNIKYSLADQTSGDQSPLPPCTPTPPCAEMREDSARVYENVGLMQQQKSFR
# EXPERIMENT SUMMARY: SHP2 allosteric inhibition experiment (Homogeneous Full Length SHP-2 Assay Kit)
# Assay type: biochemical
# STATED CONDITIONS: full-length SHP2 0.06 nM with SHP-2 activating peptide; ten-point, 1 μM to 0.05 nM; read-out: IC50 Values of Compounds Inhibiting SHP2
pIC50: −log10 of the molar value.
PROPERTY: pIC50

I would be grateful if you could share the reported pIC50 for C[C@@H]1OCC2(CCN(c3cnc4nc(Sc5cccc(NC(=O)c6c(O)nc7n(c6=O)CCCC7)c5Cl)ncc4n3)CC2)[C@@H]1N . ≥ 8.00

I would be grateful if you could share the reported pIC50 for C[C@@H]1OCC2(CCN(c3cnc(Sc4cccc(NC(=O)c5c(O)nc6n(c5=O)CCCC6)c4Cl)nc3)CC2)[C@@H]1N . ≥ 8.00

I would be grateful if you could share the reported pIC50 for C[C@@H]1OCC2(CCN(c3ccc4nc(Sc5cccc(NC(=O)c6cnccn6)c5Cl)ncc4n3)CC2)[C@@H]1N . ≥ 8.00

I would be grateful if you could share the reported pIC50 for CCn1ccc(-c2cccc(Sc3ncc4nc(N5CCC6(CC5)CO[C@@H](C)[C@H]6N)cnc4n3)c2Cl)n1 . ≥ 8.00

I would be grateful if you could share the reported pIC50 for C[C@@H]1OCC2(CCN(c3ncc4nc(Sc5cccc(NC(=O)c6c(O)nc7n(c6=O)CCCC7)c5Cl)cnc4n3)CC2)[C@@H]1N . ≥ 8.00
